Field: half-life. Provide a value for each of the compounds that follow.
- ASSAY SUMMARY: Beagle pharmacokinetic study (ig/sc/iv, plasma LC/MS/MS)
- Type: in vivo, beagles
- TEST CONDITIONS: dog, plasma, po, intragastric administration, 4 mg/kg, read-out: Half life T½ (converted)
- Procedure: Taking beagles as test animals, and the drug concentrations in dog plasma at various times after intragastric administration (ig)/subcutaneous injection (sc)/intravenous injection (iv) administration of the compound of Example 1-1 and Positive Control Example 1 were measured by using LC/MS/MS method. The pharmacokinetic performance in beagles of the compounds of the present disclosure was studied and the pharmacokinetic profile thereof was evaluated. […]

| COMPOUND | READOUT NAME | REPORTED VALUE |
| --- | --- | --- |
| CC(C)(C#Cc1ccc(-c2ccc(Cl)c3c(NS(C)(=O)=O)nn(CC(F)(F)F)c23)c([C@H](Cc2cc(F)cc(F)c2)NC(=O)Cn2nc(C(F)(F)F)c3c2C(F)(F)[C@@H]2C[C@H]32)n1)S(C)(=O)=O [Positive Control Example 1, reference compound] | half-life | 23 h |

# input for lookup
Sample CC(C)(C#Cc1nc([C@H](Cc2cc(F)cc(F)c2)NC(=O)Cn2nc(C(F)(F)F)c3c2C(F)(F)[C@@H]2C[C@H]32)c(-c2ccc(Cl)c3c(NS(C)(=O)=O)nn(CC(F)(F)F)c23)c2c1CCC2)S(C)(=O)=O (atropisomer, axis not shown; (aR)) — what was its half-life?
44.3 h

----------
- ASSAY SUMMARY: Beagle pharmacokinetic study (ig/sc/iv, plasma LC/MS/MS)
- Type: in vivo, beagles
- TEST CONDITIONS: dog, plasma, sc, subcutaneous injection, 6 mg/kg, read-out: Area under curve AUC0-72
- Procedure: Taking beagles as test animals, and the drug concentrations in dog plasma at various times after intragastric administration (ig)/subcutaneous injection (sc)/intravenous injection (iv) administration of the compound of Example 1-1 and Positive Control Example 1 were measured by using LC/MS/MS method. The pharmacokinetic performance in beagles of the compounds of the present disclosure was studied and the pharmacokinetic profile thereof was evaluated. […]
READOUT NAME: AUC(0-t) (ng·h/mL)
One number for each entry, in ng·h/mL.

| MOLECULE | AUC(0-t) [ng·h/mL] |
| --- | --- |
| CC(C)(C#Cc1nc([C@H](Cc2cc(F)cc(F)c2)NC(=O)Cn2nc(C(F)(F)F)c3c2C(F)(F)[C@@H]2C[C@H]32)c(-c2ccc(Cl)c3c(NS(C)(=O)=O)nn(CC(F)(F)F)c23)c2c1CCC2)S(C)(=O)=O (atropisomer, axis not shown; (aR)) | 34800 |

# input for lookup
Sample CC(C)(C#Cc1ccc(-c2ccc(Cl)c3c(NS(C)(=O)=O)nn(CC(F)(F)F)c23)c([C@H](Cc2cc(F)cc(F)c2)NC(=O)Cn2nc(C(F)(F)F)c3c2C(F)(F)[C@@H]2C[C@H]32)n1)S(C)(=O)=O [Positive Control Example 1, reference compound] — what was its AUC(0-t)?
17700

----------
Field: IC50. Provide a value for each of the compounds that follow.
- TARGET OF ASSAY: HIV-1 capsid protein (Human immunodeficiency virus type 1 group M subtype B, UniProt P12493)
One number for each entry, in nM.

// each compound listed below needs its IC50
1. CC(C)(C#Cc1nc([C@H](Cc2cc(F)cc(F)c2)NC(=O)Cn2nc(C(F)(F)F)c3c2C(F)(F)[C@@H]2C[C@H]32)c(-c2ccc(Cl)c3c(NS(C)(=O)=O)nn(CC(F)(F)F)c23)c2c1CCC2)S(C)(=O)=O (atropisomer, axis not shown; (aR))
2. CC(C)(C#Cc1nc([C@H](Cc2cc(F)cc(F)c2)NC(=O)Cn2nc(C(F)(F)F)c3c2C(F)(F)[C@@H]2C[C@H]32)c(-c2ccc(Cl)c3c(NS(C)(=O)=O)nn(CC(F)(F)F)c23)c2c1CCCC2)S(C)(=O)=O (single isomer, unassigned)
3. CC(C)(C#Cc1nc([C@H](Cc2cc(F)cc(F)c2)NC(=O)Cn2nc(C(F)(F)F)c3c2C(F)(F)[C@@H]2C[C@H]32)c(-c2ccc(Cl)c3c(NS(=O)(=O)C4CC4)nn(CC(F)(F)F)c23)c2c1CCC2)S(C)(=O)=O (atropisomer, axis not shown; (aR))
4. CC(C)(C#Cc1nc([C@H](Cc2cc(F)cc(F)c2)NC(=O)Cn2nc(C(F)(F)F)c3c2C(F)(F)[C@@H]2C[C@H]32)c(-c2ccc(Cl)c3c(NS(C)(=O)=O)nn(CC(F)(F)F)c23)c2c1CCC2)S(=O)(=O)C1CC1 (atropisomer, axis not shown; (aR))
5. CC(C)(C#Cc1nc([C@H](Cc2cc(F)cc(F)c2)NC(=O)Cn2nc(C(F)(F)F)c3c2C(F)(F)[C@@H]2C[C@H]32)c(-c2ccc(Cl)c3c(NS(C)(=O)=O)nn(CC(F)(F)F)c23)c2ccccc12)S(C)(=O)=O (atropisomer, axis not shown; (aR))
6. CC(C)(C#Cc1nc([C@H](Cc2cc(F)cc(F)c2)NC(=O)Cn2nc(C(F)(F)F)c3c2C(F)(F)[C@@H]2C[C@H]32)c(-c2ccc(Cl)c3c(NS(=O)(=O)C4CC4)nn(CC(F)(F)F)c23)c2c1CCC2)S(=O)(=O)C1CC1 (atropisomer, axis not shown; (aR))

1. 9
2. 37
3. 19
4. 24
5. 107
6. 68
